# Test target: CFTR (Homo sapiens, UniProt P13569)
# Sequence (P13569 with tags, fused parts or gaps DEL508-508): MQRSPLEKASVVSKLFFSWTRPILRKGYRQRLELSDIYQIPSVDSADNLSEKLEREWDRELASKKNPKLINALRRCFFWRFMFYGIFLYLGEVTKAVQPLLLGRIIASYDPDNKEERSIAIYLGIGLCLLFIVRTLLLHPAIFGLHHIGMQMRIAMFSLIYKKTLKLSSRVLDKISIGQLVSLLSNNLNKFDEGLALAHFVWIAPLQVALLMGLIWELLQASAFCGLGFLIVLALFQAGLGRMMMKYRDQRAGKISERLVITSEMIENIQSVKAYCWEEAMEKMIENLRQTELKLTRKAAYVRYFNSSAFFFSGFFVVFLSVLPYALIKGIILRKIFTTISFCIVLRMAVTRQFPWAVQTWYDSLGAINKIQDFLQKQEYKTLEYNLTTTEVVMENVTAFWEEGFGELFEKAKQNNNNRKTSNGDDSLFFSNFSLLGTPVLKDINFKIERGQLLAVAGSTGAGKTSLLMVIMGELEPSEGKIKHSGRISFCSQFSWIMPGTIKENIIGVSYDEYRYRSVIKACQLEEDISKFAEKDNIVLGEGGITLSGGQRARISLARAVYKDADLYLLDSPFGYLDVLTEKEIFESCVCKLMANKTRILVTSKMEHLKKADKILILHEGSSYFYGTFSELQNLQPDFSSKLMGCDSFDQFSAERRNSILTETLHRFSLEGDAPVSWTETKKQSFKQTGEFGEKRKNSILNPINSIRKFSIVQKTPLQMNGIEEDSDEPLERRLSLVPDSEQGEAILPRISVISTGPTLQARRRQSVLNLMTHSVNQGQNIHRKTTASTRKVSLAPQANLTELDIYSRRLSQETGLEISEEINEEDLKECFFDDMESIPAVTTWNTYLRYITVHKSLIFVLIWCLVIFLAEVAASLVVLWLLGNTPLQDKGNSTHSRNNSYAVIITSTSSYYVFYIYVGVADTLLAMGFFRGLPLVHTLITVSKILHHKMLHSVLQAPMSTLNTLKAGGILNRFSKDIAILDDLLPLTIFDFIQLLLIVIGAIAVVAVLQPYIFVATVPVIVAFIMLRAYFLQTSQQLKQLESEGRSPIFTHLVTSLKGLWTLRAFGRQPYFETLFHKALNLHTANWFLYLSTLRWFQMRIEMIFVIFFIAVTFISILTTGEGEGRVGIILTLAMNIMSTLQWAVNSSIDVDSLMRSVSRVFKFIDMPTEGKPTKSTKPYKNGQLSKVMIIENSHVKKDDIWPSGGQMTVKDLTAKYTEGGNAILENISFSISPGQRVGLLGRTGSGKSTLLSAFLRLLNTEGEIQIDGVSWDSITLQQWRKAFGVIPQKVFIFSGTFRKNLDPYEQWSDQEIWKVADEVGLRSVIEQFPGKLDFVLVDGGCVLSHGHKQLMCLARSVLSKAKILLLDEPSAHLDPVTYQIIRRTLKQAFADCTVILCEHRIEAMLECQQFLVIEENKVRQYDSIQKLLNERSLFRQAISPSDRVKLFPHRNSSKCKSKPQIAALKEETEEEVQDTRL
# Assay info: Membrane Potential Dye, Enteroid Assay B
# Assay type: cell-based
# Condition: read-out: Ent. B EC50
pEC50: −log10 of the molar value.
Readout kind: pEC50

Please review the following examples before continuing.
>  <Compound>
Cc1cccc(C)c1-c1nc2nc(c1C)OC[C@@H](CC(C)(C)C(F)(F)F)N(C1CC3(CCNCC3)C1)C(=O)c1cccc(c1)S(=O)(=O)N2

>  <Test target>
CFTR (Homo sapiens, UniProt P13569)

>  <Observed measurement>
> 6.00

$$$$
>  <Compound>
COC(=O)NC1CC2(C1)CC(N1C(=O)c3cccc(c3)S(=O)(=O)Nc3nc(c(C)c(-c4c(C)cccc4C)n3)OC[C@H]1CC(C)(C)C)C2 (single isomer, unassigned) [Compound 61]

>  <Test target>
CFTR (Homo sapiens, UniProt P13569)

>  <Observed measurement>
> 6.00

$$$$
>  <Compound>
Cc1cccc(C)c1-c1nc2nc(c1C1=CCN(C(=O)OC(C)(C)C)CC1)OC[C@@H](C)NC(=O)c1cccc(c1)S(=O)(=O)N2

>  <Test target>
CFTR (Homo sapiens, UniProt P13569)

>  <Observed measurement>
5.52 to 6.00

$$$$
>  <Compound>
Cc1cccc(C)c1-c1nc2nc(c1-c1cnn(CC(C)C)c1)O[C@H](C)CNC(=O)c1cccc(c1)S(=O)(=O)N2

>  <Test target>
CFTR (Homo sapiens, UniProt P13569)

>  <Observed measurement>
5.52 to 6.00

$$$$
>  <Compound>
Cc1cccc(C)c1-c1nc2nc(c1/C=C/C(C)(C)C)OC[C@@H](C)NC(=O)c1cccc(c1)S(=O)(=O)N2

>  <Test target>
CFTR (Homo sapiens, UniProt P13569)

>  <Observed measurement>
> 6.00

$$$$

Field pEC50 (entry Cc1cccc(C)c1-c1nc2nc(c1C)OC[C@@H](CC(C)(C)C)N(C1CC3(CCN(C(=O)OC(C)(C)C)CC3)C1)C(=O)c1cccc(c1)S(=O)(=O)N2 ) reads > 6.00

Field pEC50 (entry Cc1cccc(C)c1-c1nc2nc(c1CCC(C)(C)C)OC[C@@H](C)NC(=O)c1cccc(c1)S(=O)(=O)N2 ) reads > 6.00

Field pEC50 (entry Cc1cccc(C)c1-c1nc2nc(c1-c1ccccn1)O[C@H](C)CNC(=O)c1cccc(c1)S(=O)(=O)N2 ) reads 4.52 to 5.52

Field pEC50 (entry Cc1cccc(C)c1-c1nc2nc(c1-c1cnn(C(C)C)c1)OC[C@@H](C)NC(=O)c1cccc(c1)S(=O)(=O)N2 ) reads 4.52 to 5.52

Field pEC50 (entry Cc1ccc(C(F)(F)F)c(C)c1-c1nc2nc(c1C(F)(F)F)OC[C@@H](CC(C)C)NC(=O)c1cccc(c1)S(=O)(=O)N2 ) reads > 6.00

Field pEC50 (entry COC(=O)NC1CC2(C1)CC(N1C(=O)c3cccc(c3)S(=O)(=O)Nc3nc(c(C)c(-c4c(C)cccc4C)n3)OC[C@H]1CC(C)C)C2 (stereo in doubt) [Compound 68] ) reads > 6.00

Field pEC50 (entry Cc1cccc(C)c1-c1nc2nc(c1C)OCCN(C1CC3(CC(NC(=O)OC(C)(C)C)C3)C1)C(=O)c1cccc(c1)S(=O)(=O)N2 (stereo not shown) ) reads > 6.00

Field pEC50 (entry Cc1cccc(C)c1-c1nc2nc(c1C)OC[C@@H](CC1(C(F)(F)F)CC1)N(C1CC3(CC(N(C)C)C3)C1)C(=O)c1cccc(c1)S(=O)(=O)N2 (stereo in doubt) [Compound 90] ) reads > 6.00

Field pEC50 (entry Cc1cccc(C)c1-c1nc2nc(c1C1=CCOCC1)O[C@H](C)CNC(=O)c1cccc(c1)S(=O)(=O)N2 ) reads 4.52 to 5.52

Field pEC50 (entry Cc1cccc(C)c1-c1nc2nc(c1CO)OC[C@@H](CC(C)C)N(C1CC3(CC3)C1)C(=O)c1cccc(c1)S(=O)(=O)N2 ) reads > 6.00

Field pEC50 (entry Cc1cccc(C)c1-c1nc2nc(c1C)OC[C@@H](CC(C)(C)C)N(C1CC3(CCN(C(=O)OC(C)C)CC3)C1)C(=O)c1cccc(c1)S(=O)(=O)N2 ) reads > 6.00

Origin of values: patent US20230374038A1
